Where a name gives a salt, the structure may show the parent alone.
outcome.measure: melting point

COc1ccc2c(c1)C(C(=O)N(Cc1ccc(S(C)(=O)=O)cc1)c1ccc(C(C)C)cc1)CCC2 (stereo not shown) [Example 35] ... 131 to 132 °C
COc1ccc2c(c1)C(C(=O)N(Cc1ccc(N(C)C)nc1)c1ccc(C(C)C)cc1)CCC2 (stereo not shown) (as salt: hydrochloride) (hydrate or solvate) [Example 55] ... 158 to 160 °C
CC(C)c1ccc(N(Cc2ccc(N(C)C)cc2)C(=O)C2CCCc3c(O)cccc32)cc1 (stereo not shown) [Example 17] ... 200 to 202 °C
CCc1ccc(N(Cc2ccc(N(C)C)cc2)C(=O)C2CCCc3ccccc32)cc1 (stereo not shown) [Example 1] ... 109 to 110 °C
COc1ccc2c(c1)C(C(=O)N(Cc1ccc(OC)nc1)c1ccc(C(C)C)cc1)CCC2 (stereo not shown) (as salt: hydrochloride) [Example 46, monohydrochloride] ... 114 to 117 °C

Request: Name the recorded melting point for CC(C)c1ccc(N(Cc2ccc(N(C)C)cc2)C(=O)C2CCCc3cc(O)ccc32)cc1 (stereo not shown) [Example 37] .
Result: 169 to 171 °C

Request: Then what about the compound COc1ccc2c(c1)C(C(=O)N(Cc1ccc(N(C)C)cc1)c1ccc(Br)cc1)CCC2 (stereo not shown) (as salt: hydrochloride) [Example 200] ?
Result: 104 to 113 °C

Request: Then what about the compound COc1ccc2c(c1)C(C(=O)N(Cc1ccc(N)cc1)c1ccc(C(C)C)cc1)CCC2 (stereo not shown) [Example 167] ?
Result: 115 to 117 °C

Request: Then what about the compound COc1ccc(N(Cc2ccc(N(C)C)cc2)C(=O)C2CCCc3ccc(F)cc32)cc1 (stereo not shown) (as salt: hydrochloride) (hydrate or solvate) [Example 128] ?
Result: 125.4 °C

Request: Then what about the compound CC(C)c1ccc(N(Cc2ccc(N(C)C)cc2)C(=O)C2CCCc3ccc(O)cc32)cc1 (stereo not shown) [Example 20] ?
Result: 214 to 217 °C

Request: Then what about the compound CC(C)c1ccc(N(Cc2cnn(CCO)c2)C(=O)C2CCCc3c(O)cccc32)cc1 (stereo not shown) [Example 362] ?
Result: 110 to 114 °C

Request: Then what about the compound CC(C)COc1ccc(Br)cc1N(Cc1ccc(N(C)C)cc1)C(=O)C1CCCc2ccccc21 (stereo not shown) [Example 5] ?
Result: 176 to 178 °C

Request: Then what about the compound CC(C)c1ccc(N(Cc2ccc(N(C)C)cc2)C(=S)C2CCCc3ccccc32)cc1 (stereo not shown) [Example 54] ?
Result: 123 to 125 °C

Request: Then what about the compound COc1ccc(CN(C(=O)C2CCCc3ccc(OC)cc32)c2ccc(C(C)C)cc2)nc1 (stereo not shown) (as salt: hydrochloride) (hydrate or solvate) [Example 56] ?
Result: 108 to 110 °C

Request: Then what about the compound CC(C)c1ccc(N(Cc2cnn(CC(F)(F)F)c2)C(=O)C2CCCc3c(O)cccc32)cn1 (stereo not shown) [Example 435] ?
Result: 127.7 °C

Request: Then what about the compound COc1ccc(CN(C(=O)C2CCCc3c(O)cccc32)c2ccc(C(C)C)nc2)c(OC)n1 (stereo not shown) [Example 133] ?
Result: 164 °C
